Reference source for all entries: the NIST ThermoML archive (doi:10.1021/je400835u)

Entries and their viscosity
details: 303.15 K; 100 kPa; Liquid; Falling or rolling sphere viscometry
± gives the expanded uncertainty stated by the source.
Report field: quantity (unit follows the number).

CCCCC1CCCCC1; 1.107 ± 0.013 mPa·s
CCCCCCC; 0.378 ± 0.01 mPa·s
CCCCCCCC; 0.49 ± 0.011 mPa·s
CCCCCCCCCCCCCC; 1.898 ± 0.017 mPa·s

Incoming: Could you share which viscosity value was measured for CCCCCCCCCC ?
Outgoing: 0.806 ± 0.012 mPa·s

Incoming: // repeat for CCCCCCCCCCCC and report
Outgoing: 1.265 ± 0.013 mPa·s

Incoming: // repeat for CCCCCCCCC and report
Outgoing: 0.639 ± 0.011 mPa·s
